B1: OR4K15 (parent)
chain: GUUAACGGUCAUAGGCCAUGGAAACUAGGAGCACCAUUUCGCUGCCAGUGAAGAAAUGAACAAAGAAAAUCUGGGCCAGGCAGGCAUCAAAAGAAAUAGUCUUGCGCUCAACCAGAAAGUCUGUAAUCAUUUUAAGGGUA

- Variants of: B1
- ASSAY TEXT: self-cleavage, relative activity (ratio to wild type); higher = more cleavage; in vitro, sequencing; the parent is a self-cleaving ribozyme
Please mark 1 if the recorded self-cleavage is equal to or greater than 0.4, and -1 if it falls below.

Query: Test whether the variant A98G A110U records self-cleavage of 0.4 or higher.
Response: -1

Query: Could you tell me if the measured self-cleavage of A54U U103C reaches 0.4 or more?
Response: 1

Query: Please indicate if the recorded self-cleavage for U9C A68G meets or exceeds 0.4.
Response: 1

Query: Exam item: decide whether the reported self-cleavage for A67G A114U is at least 0.4.
Response: -1

Query: Reported self-cleavage at or above 0.4? C6U U132C
Response: 1

Query: Threshold query (self-cleavage >= 0.4) on G48A A126U
Response: 1

Query: Could you please find out whether A18G A89U has self-cleavage that meets 0.4 or exceeds it?
Response: 1

Query: Please check the record A63U A89C and state if its self-cleavage is at or above 0.4.
Response: 1

Query: Exam item: decide whether the reported self-cleavage for C10U A55G is at least 0.4.
Response: 1

Query: # bool: self-cleavage of U9C U132G >= 0.4
Response: 1

Query: Confirm if self-cleavage reported for the variant U103C A110G is 0.4 or above.
Response: -1

Query: Could you please find out whether U19A U122C has self-cleavage that meets 0.4 or exceeds it?
Response: 1

Query: Reported self-cleavage reaches at least 0.4 for U70C U108C ?
Response: -1

Query: Check if self-cleavage >= 0.4 (inclusive). Item: C25G A30G
Response: 1

Query: Would you say A30U U39A shows self-cleavage at minimum 0.4?
Response: 1

Query: Please check the record C17U A27C and state if its self-cleavage is at or above 0.4.
Response: 1

Query: For this variant, is measured self-cleavage 0.4 or higher? G73A U120C
Response: -1

Query: Quick check: does A54U A63G have self-cleavage greater than or equal to 0.4?
Response: 1

Query: In plain terms: is recorded self-cleavage at least 0.4 for G21A A135C ?
Response: 1

Query: Hi team, for U39C U72C , is the recorded self-cleavage at or above 0.4?
Response: -1

Query: Is self-cleavage for A78U U100A at or above 0.4?
Response: -1

Query: Is reported self-cleavage greater than or equal to 0.4 here: G28A A114G
Response: -1

Query: Check this variant for self-cleavage at or above 0.4: A64G A134U
Response: 1

Query: In plain terms: is recorded self-cleavage at least 0.4 for U26C C46U ?
Response: 1

Query: Reported self-cleavage at or above 0.4? A23G A60G
Response: 1

Query: # bool: self-cleavage of A60U G138A >= 0.4
Response: 1

Query: Hello, I need to know if A11G A68G has measured self-cleavage not below 0.4. Thanks!
Response: 1

Query: Threshold query (self-cleavage >= 0.4) on U38C G75A
Response: -1

Query: Can `G50U` be said to have self-cleavage at or above 0.4?
Response: 1

Query: self-cleavage >= 0.4 for A56G A116G ?
Response: 1

Query: Entry A69G U132A : is its self-cleavage no less than 0.4?
Response: 1

Query: Threshold query (self-cleavage >= 0.4) on A62U A140G
Response: 1

Query: Quick check, self-cleavage >= 0.4? A78G U100C
Response: -1

Query: Item A33G U72C with self-cleavage of 0.4 or above?
Response: -1

Query: self-cleavage >= 0.4 for A95G U130C ?
Response: 1

Query: Has G28A A52G a recorded self-cleavage greater than or equal to 0.4?
Response: 1

Query: Does the variant G79A A94U have recorded self-cleavage that is 0.4 or more?
Response: -1

Query: self-cleavage >= 0.4 for A82C C109U ?
Response: -1

Query: Has U2A A117U a recorded self-cleavage greater than or equal to 0.4?
Response: 1

Query: Given the entry A52G A117G , answer whether its self-cleavage meets or surpasses 0.4.
Response: 1

Query: Determine whether measured self-cleavage meets or exceeds 0.4 for G21A U38A
Response: 1

Query: For this variant, is measured self-cleavage 0.4 or higher? U26C A51U
Response: 1

Query: Has A62G A114U a recorded self-cleavage greater than or equal to 0.4?
Response: -1

Query: Confirm if self-cleavage reported for the variant A24G A60U is 0.4 or above.
Response: 1

Query: Tell me whether self-cleavage is at least 0.4 here: A60G C109A
Response: -1

All values here come from the RNAGym collection of RNA variant scans (doi:10.7554/elife.90254).
